# Tgt: PD-1/PD-L1 interaction (Homo sapiens, UniProt Q9NZQ7)
# Construct: expressed in transfected cells; host or cells: CHO cells (aAPC-PD-L1) co-cultured with Jurkat cells overexpressing PD-1 and an NFAT-luciferase reporter
# Sequence (Q9NZQ7 19-290): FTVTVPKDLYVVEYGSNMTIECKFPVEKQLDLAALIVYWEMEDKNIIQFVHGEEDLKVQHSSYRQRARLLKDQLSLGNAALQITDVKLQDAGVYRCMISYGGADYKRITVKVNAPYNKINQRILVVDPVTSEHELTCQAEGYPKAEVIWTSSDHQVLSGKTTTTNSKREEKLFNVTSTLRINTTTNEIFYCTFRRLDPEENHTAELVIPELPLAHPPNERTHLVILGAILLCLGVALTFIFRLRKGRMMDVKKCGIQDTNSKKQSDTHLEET
# Test method notes: PD-1/PD-L1 NFAT reporter co-culture assay
# Format: cell-based
# Condition notes: Jurkat PD-1 NFAT-luciferase cells co-cultured with aAPC-PD-L1 CHO cells, 6 hrs at 37° C.; read-out: EC50 NFAT Luciferase
pEC50: −log10 of the molar value.
Observation type: pEC50

[
  {
    "Cpd smiles": "Cc1c(COc2cc(OCc3cncc(C#N)c3)c(CN[C@@](C)(CO)C(=O)O)cc2Cl)cccc1-c1cccc(-c2ccc(C3=NCCN3)cn2)c1C",
    "pEC50": 7.01
  },
  {
    "Cpd smiles": "COc1nc(O[C@H]2CCc3c(-c4cccc5c4CC[C@@H]5Oc4nc(OC)c(CNC[C@@H](O)CC(=O)O)cc4Cl)cccc32)c(Cl)cc1CNC[C@@H](O)CC(=O)O",
    "pEC50": 6.83
  }
]

* * *

# Tgt: PD-1/PD-L1 (Homo sapiens, UniProt Q9NZQ7)
# Sequence (Q9NZQ7 19-238 limits assumed): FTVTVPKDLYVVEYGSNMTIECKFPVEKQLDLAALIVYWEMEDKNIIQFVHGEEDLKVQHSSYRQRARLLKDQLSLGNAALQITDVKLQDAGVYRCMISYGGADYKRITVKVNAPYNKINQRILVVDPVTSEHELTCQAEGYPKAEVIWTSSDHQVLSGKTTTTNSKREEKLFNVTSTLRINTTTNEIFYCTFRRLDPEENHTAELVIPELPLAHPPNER
# Test method notes: PD-1/PD-L1 biochemical protein-protein interaction assay (ALPHA)
# Type: binding
# Condition notes: 0.3 nM His tagged PD-L1, 2.5 nM biotinylated Fc-PD-1, 60 minutes at 25° C., read-out: IC50 PD-L1-PD-1 Alpha IC50-mono PD-L1-fcP-D1
pIC50: −log10 of the molar value.
Observation type: pIC50

P. Cc1c(COc2ccc(CNC[C@@H](O)CC(=O)O)c(OCc3cc(C#N)ccc3F)c2)cccc1-c1cccc(COc2ccc(CNC[C@@H](O)CC(=O)O)c(OCc3cc(C#N)ccc3F)c2)c1C [Example 265]
Q. Cc1c(COc2cc(OCc3cncc(C#N)c3)c(CNC[C@@H](O)CC(=O)O)cc2Cl)cccc1-c1cccc(-c2ccc3c(c2)CC(NCC2CCC(=O)N2)C3)c1C (stereo partly drawn) [Example 439]
R. Cc1c(COc2cc(OCc3cncc(C#N)c3)c(CN[C@@](C)(CO)C(=O)O)cc2Cl)cccc1-c1cccc(-c2cnc3c(Cl)cc(CN[C@@](C)(CO)C(=O)O)cc3c2)c1C [Example 296]
-- ask // sort entries: pIC50, high to low Please list each label once, in the requested order.
-- reply R, Q, P
(R: 10.19, Q: 9.42, P: 8.49)

* * *

# Tgt: PD-1/PD-L1 interaction (Homo sapiens)
# Construct: expressed in transfected cells; host or cells: CHO cells (aAPC-PD-L1) co-cultured with Jurkat cells overexpressing PD-1 and an NFAT-luciferase reporter
# Test method notes: PD-1/PD-L1 NFAT reporter co-culture assay
# Type: cell-based
# Condition notes: Jurkat PD-1 NFAT-luciferase cells co-cultured with aAPC-PD-L1 CHO cells, 6 hrs at 37° C.; read-out: EC50 NFAT Luciferase
pEC50: −log10 of the molar value.
Item-by-item account of pEC50

-- ask Value lookup for pEC50; key = "COc1nc(OCc2cccc(-c3cccc(COc4ccc(CNC[C@H](C)O)c(OC)n4)c3C)c2C)ccc1CNC[C@H](C)O"
-- reply ≤ 4.30

-- ask Another compound to check: "COc1nc(-c2cccc(-c3cccc(-c4ccc5[nH]c(CN(C)C)cc5c4)c3Cl)c2Cl)ccc1CNC[C@@H]1CCC(=O)N1"
-- reply ≤ 4.30

-- ask Repeat for the following compound: "COc1nc(-c2cccc(-c3cccc(-c4ccc5[nH]cc(CN(C)C)c5c4)c3Cl)c2Cl)ccc1CNC[C@@H]1CCC(=O)N1"
-- reply ≤ 4.30
